# Tgt: UniProt:P43117
# Sequence (P43117 whole entry): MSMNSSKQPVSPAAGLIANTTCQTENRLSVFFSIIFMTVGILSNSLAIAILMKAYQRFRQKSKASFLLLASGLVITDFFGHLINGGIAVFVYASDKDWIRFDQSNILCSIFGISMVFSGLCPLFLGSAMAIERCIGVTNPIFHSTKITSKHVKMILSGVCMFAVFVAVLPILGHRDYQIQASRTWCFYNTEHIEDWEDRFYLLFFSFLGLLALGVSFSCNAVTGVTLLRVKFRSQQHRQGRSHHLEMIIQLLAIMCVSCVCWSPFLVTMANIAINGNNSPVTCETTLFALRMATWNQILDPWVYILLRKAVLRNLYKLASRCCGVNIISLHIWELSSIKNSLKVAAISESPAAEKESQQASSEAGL
# Test Protocol: Antagonist activity at prostaglandin F2-alpha receptor in isolated Albino mouse ileum assessed as inhibition of PGF2alpha-induced spasmogenic effect at
# Type: tissue-based
Activity calls are given as the source filed them. The rule behind the calls is not given here.
Answer with one of the outcomes given here: active, inactive

Lookup: // outcome(item) with item = CCCC1(CCC(=O)O)Cc2cc3c(cc2C1=O)OCO3 (centres undefined)
Found: inactive

Lookup: Fill in: this test's call for CCCC1(CCC(=O)O)Cc2cc(OCc3ccccc3)c(OCc3ccccc3)cc2C1=O (centres undefined) is ___
Found: active

Lookup: Answer briefly: the call reported for CCCC1(CCC(=O)O)Cc2cc3c(cc2C1)OCO3 in this assay.
Found: inactive

We now examine a further molecule.
Lookup: Which outcome was entered for the molecule CCCC1(CCC(=O)O)Cc2ccc(OC)cc2C1=O (centres undefined) in this test?
Found: inactive

Where these numbers come from: ChEMBL document CHEMBL3244074
